Reference for the values: patent US8431565B2

pEC50 for assorted compounds
- target-system: rat CB2 receptor (rCB2) (Rattus norvegicus)
- Sequence (Q9QZN9 whole entry): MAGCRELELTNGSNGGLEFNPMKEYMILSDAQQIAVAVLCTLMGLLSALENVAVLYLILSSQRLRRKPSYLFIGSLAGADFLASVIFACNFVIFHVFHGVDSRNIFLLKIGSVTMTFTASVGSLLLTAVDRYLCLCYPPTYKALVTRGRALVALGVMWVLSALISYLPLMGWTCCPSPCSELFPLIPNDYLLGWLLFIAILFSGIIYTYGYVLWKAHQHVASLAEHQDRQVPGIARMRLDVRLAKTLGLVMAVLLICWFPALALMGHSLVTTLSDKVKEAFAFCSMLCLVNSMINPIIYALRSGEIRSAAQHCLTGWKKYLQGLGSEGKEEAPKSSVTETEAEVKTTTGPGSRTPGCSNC
pEC50: −log10 of the molar value.

[
  {
    "compound": "CC(C)CN1CCn2c(-c3ccccc3)nc(C(=O)N[C@H](CO)C(C)(C)C)c2C1 [Compound 60]",
    "pEC50": "7.00 to 8.00"
  },
  {
    "compound": "CNC(=O)[C@@H](NC(=O)c1nc(-c2ccc3ccccc3c2)n2c1CN(C)CCC2)C(C)(C)C [Compound 380]",
    "pEC50": "7.00 to 8.00"
  },
  {
    "compound": "CC(C)CN1CCn2c(-c3ccccc3)nc(C(=O)NN3CCCCC3)c2C1 [Compound 155]",
    "pEC50": "8.00 to 10.00"
  },
  {
    "compound": "Cc1noc([C@@H](NC(=O)c2nc(-c3ccccc3)n3c2CN(C)CC3)C(C)(C)C)n1 [Compound 87]",
    "pEC50": "7.00 to 8.00"
  },
  {
    "compound": "CCc1nc(C(=O)N[C@H](C(=O)NC)C(C)(C)C)c2n1CCN(C)C2 [Compound 310]",
    "pEC50": "7.00 to 8.00"
  },
  {
    "compound": "CC(C)(C)OC(=O)N1CCn2c(-c3ccccc3)nc(C(=O)NC3CCCCC3)c2C1 [Compound 36]",
    "pEC50": "7.00 to 8.00"
  },
  {
    "compound": "Cc1noc([C@@H](NC(=O)c2nc(-c3ccccc3)n3c2CN(CC2CC2)CC3)C(C)(C)C)n1 [Compound 88]",
    "pEC50": "7.00 to 8.00"
  },
  {
    "compound": "C[C@@H](NC(=O)c1nc(-c2ccccc2)n2c1CN(C(=O)OC(C)(C)C)CC2)C1CCCCC1 [Compound 37]",
    "pEC50": "7.00 to 8.00"
  },
  {
    "compound": "Cc1noc([C@@H](NC(=O)c2nc(-c3ccccc3)n3c2CN(CC(C)C)CC3)C(C)(C)C)n1 [Compound 90]",
    "pEC50": "8.00 to 10.00"
  },
  {
    "compound": "CC(C)CCNC(=O)c1nc(-c2ccc(Cl)cc2)n2c1CN(C(=O)C1CC1)CC2 [Compound 131]",
    "pEC50": "7.00 to 8.00"
  },
  {
    "compound": "CC(C)CN1CCn2c(-c3ccccc3)nc(C(=O)N[C@H](C)C3CCCCC3)c2C1 [Compound 163]",
    "pEC50": "8.00 to 10.00"
  },
  {
    "compound": "CC(C)(C)OC(=O)N1CCn2c(-c3ccc(Cl)cc3)nc(C(=O)N[C@H](CO)C(C)(C)C)c2C1 (stereo in doubt) [Compound 34]",
    "pEC50": "7.00 to 8.00"
  },
  {
    "compound": "CC(C)CN1CCn2c(-c3ccccc3)nc(C(=O)N[C@H](C)C(C)(C)C)c2C1 [Compound 52]",
    "pEC50": "8.00 to 10.00"
  },
  {
    "compound": "CC(C)CN1CCn2c(-c3ccc(Cl)cc3)nc(C(=O)N[C@H](CO)C(C)(C)C)c2C1 [Compound 160]",
    "pEC50": "8.00 to 10.00"
  },
  {
    "compound": "CNC(=O)[C@@H](NC(=O)c1nc(-c2ccc(-c3ccccc3)cc2)n2c1CN(C)CC2)C(C)(C)C [Compound 265]",
    "pEC50": "7.00 to 8.00"
  },
  {
    "compound": "Cc1noc([C@@H](NC(=O)c2nc(-c3ccccc3)n3c2CN(C2CC2)CC3)C(C)(C)C)n1 [Compound 198]",
    "pEC50": "8.00 to 10.00"
  },
  {
    "compound": "CN1CCn2c(-c3ccc(Cl)cc3F)nc(C(=O)N3CCC4(CCNC4=O)CC3)c2C1 [Compound 220]",
    "pEC50": "< 5.00"
  },
  {
    "compound": "CNC(=O)[C@@H](NC(=O)c1nc(CCCC2CCCC2)n2c1CN(C)CCC2)C(C)(C)C [Compound 494]",
    "pEC50": "7.00 to 8.00"
  },
  {
    "compound": "CC(C)CN1CCn2c(-c3ccccc3)nc(C(=O)N[C@@H](CO)C(C)(C)C)c2C1 [Compound 68]",
    "pEC50": "8.00 to 10.00"
  },
  {
    "compound": "COC(=O)[C@@H](NC(=O)c1nc(-c2ccc(C)cc2F)n2c1CN(CC1CC1)CCC2)C(C)(C)C [Compound 470]",
    "pEC50": "7.00 to 8.00"
  }
]
